Entry source: paper PMC3704662

Target: acetylcholinesterase from electric eel (AChE, E.C. 3.1.1.7, Type V-S) (Electrophorus electricus, UniProt O42275)
Sequence (O42275 24-633): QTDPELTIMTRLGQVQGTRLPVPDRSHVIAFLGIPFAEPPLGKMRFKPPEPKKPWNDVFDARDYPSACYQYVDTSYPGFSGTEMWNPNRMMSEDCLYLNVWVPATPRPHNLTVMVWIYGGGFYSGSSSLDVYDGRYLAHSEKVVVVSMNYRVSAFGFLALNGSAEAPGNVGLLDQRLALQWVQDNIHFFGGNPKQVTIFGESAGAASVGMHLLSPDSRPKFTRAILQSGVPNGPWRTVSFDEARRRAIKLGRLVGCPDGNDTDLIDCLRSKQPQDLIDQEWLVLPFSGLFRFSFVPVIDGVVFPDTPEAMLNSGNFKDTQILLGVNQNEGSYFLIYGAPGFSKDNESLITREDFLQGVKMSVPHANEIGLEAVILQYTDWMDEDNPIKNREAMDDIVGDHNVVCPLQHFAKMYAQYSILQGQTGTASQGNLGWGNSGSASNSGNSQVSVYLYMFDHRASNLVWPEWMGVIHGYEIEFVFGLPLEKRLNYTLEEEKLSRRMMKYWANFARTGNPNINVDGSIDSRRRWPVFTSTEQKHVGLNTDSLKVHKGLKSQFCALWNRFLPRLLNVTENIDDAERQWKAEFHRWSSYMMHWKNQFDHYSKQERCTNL
Experiment: biochemical
Conditions: Ellman test; IC50 ± SEM; 15 min preincubation at 25°C; pH 8.0; acetylthiocholine iodide substrate; triplicate; read-out: IC50 of in vitro acetylcholinesterase assay
METRIC: log10 of IC50 (log10 of the value in µM)
// do not treat as linear: log10 of IC50, unit µM

Known log10 of IC50 results, listed for orientation:
[[record]]
compound = "O=C1c2ccccc2C(=O)N1CCN1CCN(Cc2cccc([N+](=O)[O-])c2)CC1 [Compound 4j]"
result_value = 1.77

[[record]]
compound = "O=C1c2ccccc2C(=O)N1CCN1CCN(Cc2cccc(Cl)c2)CC1 [Compound 4b]"
result_value = 1.93

[[record]]
compound = "O=C1c2ccccc2C(=O)N1CCN1CCN(Cc2ccccc2[N+](=O)[O-])CC1 [Compound 4i]"
result_value = 1.56

[[record]]
compound = "O=C1c2ccccc2C(=O)N1CCN1CCN(Cc2ccccc2)CC1 [Compound 4l]"
result_value = 0.95

[[record]]
compound = "COc1ccc(CN2CCN(CCN3C(=O)c4ccccc4C3=O)CC2)cc1 [Compound 4h]"
result_value = 1.86


Find the recorded log10 of IC50 belonging to O=C1c2ccccc2C(=O)N1CCN1CCN(Cc2ccc([N+](=O)[O-])cc2)CC1 [Compound 4k] and report it.
1.60

====

Biological target: acetylcholinesterase from electric eel (AChE, E.C. 3.1.1.7, Type V-S) (Electrophorus electricus, UniProt O42275)
Experiment: biochemical
Conditions: Ellman test; IC50 ± SEM; 15 min preincubation at 25°C; pH 8.0; acetylthiocholine iodide substrate; triplicate; read-out: IC50 of in vitro acetylcholinesterase assay
METRIC: log10 of IC50 (log10 of the value in µM)
Note: values are log10 of IC50 expressed in µM.

Observe how each entry below is paired with its result.
[[record]]
structure_string = "O=C1c2ccccc2C(=O)N1CCN1CCN(Cc2ccc(F)cc2)CC1"
metric = "log10 of IC50"
result_value = 1.62

[[record]]
structure_string = "O=C1c2ccccc2C(=O)N1CCN1CCN(Cc2ccccc2Cl)CC1"
metric = "log10 of IC50"
result_value = -0.04

[[record]]
structure_string = "COc1cccc(CN2CCN(CCN3C(=O)c4ccccc4C3=O)CC2)c1"
metric = "log10 of IC50"
result_value = 0.74

[[record]]
structure_string = "O=C1c2ccccc2C(=O)N1CCN1CCN(Cc2ccc(Cl)cc2)CC1"
metric = "log10 of IC50"
result_value = 1.41

[[record]]
structure_string = "O=C1c2ccccc2C(=O)N1CCN1CCN(Cc2ccccc2F)CC1"
metric = "log10 of IC50"
result_value = 1.36


// next item, log10 of IC50 requested
What measured log10 of IC50 goes with O=C1c2ccccc2C(=O)N1CCN1CCN(Cc2cccc(F)c2)CC1 ?
1.87
